The reader will find reported Mean relative activity values listed item by item below.
Test system: K562 CRISPRi cells
Assay: Constant region variant library pooled growth screen, K562
Type: cell-based, human
Details: sgRNA constant region variants; activity relative to the original, un-modified constant region cr995

{"molecule": "cr836 (nucleic acid, listed as DNA, chemistry not fully specified) guide: GTTTAAGAGCTAAGCTGGAAACAGCATAGCAAGTTTAAATAAGGCTAGTCCGTTATCAATTTGAAAAAGTGGCACCGAGTCGGTGCT", "Mean relative activity": 0.7574}
{"molecule": "cr491 (nucleic acid, listed as DNA, chemistry not fully specified) guide: GTTTAAGAGCTAAGCTGGAAACAGCATAGCAAGTTTAAATAAGGATATTCCGTTATCAAGTTGAAAAACTGGCACCGAGTCGGTGCT", "Mean relative activity": 0.5775}
{"molecule": "cr168 (nucleic acid, listed as DNA, chemistry not fully specified) guide: GTTTAAGAGCTAAGCTGGAAACAGCATAGCAAGTTTAAATAAGACTAGTTCGTTATCAAATTGAAAAATTGGCACCGAGTCGGTGCT", "Mean relative activity": 0.7238}
{"molecule": "cr986 (nucleic acid, listed as DNA, chemistry not fully specified) guide: GTTTAAGAGCTAAGCTGGAAACAGCATAGCAAGTTTAAATAAGGCTAGGCCGTTATCAACTTGAAAAAGTGGCACCGAGTCGGTGCT", "Mean relative activity": 0.0258}

Just for reference, patent US20220259593A1 is where these values come from.
